These measurements were taken from ChEMBL document CHEMBL1201862.

Test system: M14
Assay: NCI tumour cell line growth inhibition, 48 h
Active and inactive are the calls of the source. No stated cut-off is given here; in the data, active = GI50 up to about 1.1 µM and inactive = higher.
Would you mind answering with one of these outcomes? yes (1) = active, no (0) = inactive

Would you please look over these solved cases?
CCOC(=O)CCn1[nH]c(=O)c(Cl)c(Cl)c1=O    no (0)
CCN(CC)CCCNC(=O)c1ccccc1Nc1c(Cl)cccc1Cl    no (0)
CCCCCc1cc(CCCC)sc1-c1ccco1    no (0)

stdin: Outcome? CCOC(=O)Cc1ccc(Nc2nc3ccccc3nc2C(=O)OCC)cc1
stdout: no (0)

stdin: Test call, this compound: Cc1ccc(C(=O)NC(C)C)cc1/N=N/N(C)C
stdout: no (0)

stdin: Please share the test call associated with CCC1=C(CC2NCCc3ccccc32)CC2c3cc(OC)c(OC)cc3CCN2C1 (stereo not drawn) .
stdout: yes (1)

stdin: Write down the call the test reported for this compound. Item: N#C/C1=C(\N)CCSSSC1
stdout: no (0)

stdin: Which result was noted for this compound in the test: COc1cc2c(c(OC)c1OC)-c1ccc(SC)c(=O)cc1[C@@H](NC(=O)c1ccc(OC(C)=O)cc1)CC2
stdout: yes (1)

stdin: Look up the recorded call for C#CCN(C)C(=O)N(CC#C)N=O in this test.
stdout: no (0)

stdin: Which result was noted for this compound in the test: Cc1nc(=O)[nH]c2[nH][nH]c(=O)c12
stdout: no (0)

stdin: Which outcome was assigned to CCOC(=O)CC1C(C(=O)OCC)=Cn2c([nH]c3cccc4cccc2c43)=C1C(=O)OCC (stereo not drawn) in this test?
stdout: no (0)
